# STUDY SYSTEM: human glucagon receptor (human) (UniProt P47871)
# Sequence (P47871 26-477): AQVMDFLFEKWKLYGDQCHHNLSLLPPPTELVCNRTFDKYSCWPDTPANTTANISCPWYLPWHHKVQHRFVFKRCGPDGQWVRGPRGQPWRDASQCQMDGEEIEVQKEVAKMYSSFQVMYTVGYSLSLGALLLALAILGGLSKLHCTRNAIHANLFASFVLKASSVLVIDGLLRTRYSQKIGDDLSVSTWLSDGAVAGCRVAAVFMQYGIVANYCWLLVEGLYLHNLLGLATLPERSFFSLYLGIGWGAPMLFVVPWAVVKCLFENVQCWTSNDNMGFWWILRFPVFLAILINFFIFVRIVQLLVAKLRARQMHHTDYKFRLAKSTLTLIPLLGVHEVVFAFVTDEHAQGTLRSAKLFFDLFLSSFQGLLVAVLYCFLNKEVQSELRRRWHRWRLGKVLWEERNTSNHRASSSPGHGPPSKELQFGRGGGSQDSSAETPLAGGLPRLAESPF
# MEASUREMENT DESCRIPTION: cell-based or functional assay
ASSAY METRIC: Relative cAMP EC50 (nM)
Numbers only, in nM.

Consider the following illustrative entries.
{"columns": ["BINDER", "OUTPUT UNIT", "Relative cAMP EC50"],
 "data": [
  ["HXQGTXTSDYSILLDKKAQXAFIEYLEEGGPSSGAPPPS (synthetic construct; SITE 2: note = 2-Aminoisobutyric Acid; SITE 6: note = alpha-methyl-2-fluoro-L-phenylalanine; SITE 17: note = Lysine is chemically modified through conjugation of the epsilon-amino group of the Lysine side chain with (gamma-Glu)2-CO-(CH2)16-CO2H; SITE 20: note = 2-Aminoisobutyric) [Example 426]", "nM", 4.33],
  ["YXQGTXTSDXSIXLDKKAQXAFIEYLEEGGPSSGEPPPEGTGE (non-natural residues; lipidated Lys; C-terminal amide; synthetic construct; SITE 2: note = 2-Aminoisobutyric Acid; SITE 6: note = alpha-methyl-2-fluoro-L-phenylalanine; SITE 10: note = 3-(4-Pyridyl)-L-alanine; SITE 13: note = alpha-methyl-leucine; SITE 17: note = Lysine is chemically modified through conjugation of the epsilon-amino group of the Lysine) [Example 628]", "nM", 7.47]
]}

Now let's try a different one.
input: Record request: Relative cAMP EC50 value, item YXQGTFTSDFSXXLDKKAQXAFIEYLLEGGPSSGEPPPSEG (synthetic construct; SITE 2: note = 2-Aminoisobutyric Acid; SITE 12: note = L-ornithine; SITE 13: note = alpha-methyl-leucine; SITE 17: note = Lysine is chemically modified through conjugation of the epsilon-amino group of the Lysine side chain with (2-[2-(2-Amino-ethoxy)-ethoxy]-acetyl)-(gamma-Glu)) [Example 59]
output: 6.57
